Reported PBM binding z-score is given for each of the following sequences.
# System: PPARg DBDmut IVT, anti-PPARg (DBD mutation: PPARg1 K132A/R137A, NR concentration 270 nM)
# Run Description: PBM binding z-score (relative to random genomic background probes); higher = stronger binding; sequences stand for … in GC…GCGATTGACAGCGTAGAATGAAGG
Quantity Name: PBM binding z-score

- Sequence Code: "TAGCCTAGGTCGTGCGGGCCAGTATAGTGTCGGC"
  Assayed System: "PPARg DBDmut IVT, anti-PPARg (DBD mutation: PPARg1 K132A/R137A, NR concentration 270 nM)"
  Observed Result: -1.13
- Sequence Code: "CGAACTAGGTCATCTAGGACAGTGAATACATTGA"
  Assayed System: "PPARg DBDmut IVT, anti-PPARg (DBD mutation: PPARg1 K132A/R137A, NR concentration 270 nM)"
  Observed Result: 1.83
- Sequence Code: "CTCGTAAGGTCGTGCTCAGGTGAGTATACCAAAC"
  Assayed System: "PPARg DBDmut IVT, anti-PPARg (DBD mutation: PPARg1 K132A/R137A, NR concentration 270 nM)"
  Observed Result: 0.162
- Sequence Code: "ACTAGCAGGCCTAGTTTGGGTCACTCAAACAAAG"
  Assayed System: "PPARg DBDmut IVT, anti-PPARg (DBD mutation: PPARg1 K132A/R137A, NR concentration 270 nM)"
  Observed Result: -1.26
- Sequence Code: "GCATATAGGTAATATAAGGTGAAAGTCCGATTGT"
  Assayed System: "PPARg DBDmut IVT, anti-PPARg (DBD mutation: PPARg1 K132A/R137A, NR concentration 270 nM)"
  Observed Result: 0.946
- Sequence Code: "ATATGTAGCTTATCGGGTCATTCAGTTTGCGCAT"
  Assayed System: "PPARg DBDmut IVT, anti-PPARg (DBD mutation: PPARg1 K132A/R137A, NR concentration 270 nM)"
  Observed Result: 1.64
- Sequence Code: "TAGCCTAGGTCATGCTGGCCAGTATAGTGTCGGC"
  Assayed System: "PPARg DBDmut IVT, anti-PPARg (DBD mutation: PPARg1 K132A/R137A, NR concentration 270 nM)"
  Observed Result: -0.89
- Sequence Code: "TGAATGAGGTTAAAGATCGGGGAACGTGGCGTCG"
  Assayed System: "PPARg DBDmut IVT, anti-PPARg (DBD mutation: PPARg1 K132A/R137A, NR concentration 270 nM)"
  Observed Result: -0.0519
- Sequence Code: "TCTTGGAGATCAAGCAGGTTAAGAAAGCCTGAGT"
  Assayed System: "PPARg DBDmut IVT, anti-PPARg (DBD mutation: PPARg1 K132A/R137A, NR concentration 270 nM)"
  Observed Result: -0.978
- Sequence Code: "CCTCGGAGGACAACAGGAGATCAGAGCTGCCAGA"
  Assayed System: "PPARg DBDmut IVT, anti-PPARg (DBD mutation: PPARg1 K132A/R137A, NR concentration 270 nM)"
  Observed Result: -1.73
- Sequence Code: "CGTCCAAGGTCAATGCTAGGTCAGTGAGAGCATT"
  Assayed System: "PPARg DBDmut IVT, anti-PPARg (DBD mutation: PPARg1 K132A/R137A, NR concentration 270 nM)"
  Observed Result: -0.0566
- Sequence Code: "CCTATTGGGCCAAAGGTCATTGATTCCAATGCTC"
  Assayed System: "PPARg DBDmut IVT, anti-PPARg (DBD mutation: PPARg1 K132A/R137A, NR concentration 270 nM)"
  Observed Result: 0.0368
- Sequence Code: "CTCGAAAGGTCGTGCTCAGGTGAGTATTCCAAAC"
  Assayed System: "PPARg DBDmut IVT, anti-PPARg (DBD mutation: PPARg1 K132A/R137A, NR concentration 270 nM)"
  Observed Result: 0.396
- Sequence Code: "CCGACTGGGGCAGGGTTACCATAACGCACAGCCA"
  Assayed System: "PPARg DBDmut IVT, anti-PPARg (DBD mutation: PPARg1 K132A/R137A, NR concentration 270 nM)"
  Observed Result: -1.24
- Sequence Code: "CCTAGCAGGCCAATCTGGGTCACCCAAGGCTTGA"
  Assayed System: "PPARg DBDmut IVT, anti-PPARg (DBD mutation: PPARg1 K132A/R137A, NR concentration 270 nM)"
  Observed Result: -1.35
- Sequence Code: "TGATATAGGTAAAGGTGAAAGTCGAACGATATGA"
  Assayed System: "PPARg DBDmut IVT, anti-PPARg (DBD mutation: PPARg1 K132A/R137A, NR concentration 270 nM)"
  Observed Result: 0.962
- Sequence Code: "CGAACTCGGTCAAGGACAGTGAATCTCCGCACGC"
  Assayed System: "PPARg DBDmut IVT, anti-PPARg (DBD mutation: PPARg1 K132A/R137A, NR concentration 270 nM)"
  Observed Result: -0.272
- Sequence Code: "ATCTCTAGGTCAAGATAGTTCAGTGAATGCAAAT"
  Assayed System: "PPARg DBDmut IVT, anti-PPARg (DBD mutation: PPARg1 K132A/R137A, NR concentration 270 nM)"
  Observed Result: 2.11
- Sequence Code: "TCTCGTAGATCAAGCAGGTTAAGAAAGCCTGAGT"
  Assayed System: "PPARg DBDmut IVT, anti-PPARg (DBD mutation: PPARg1 K132A/R137A, NR concentration 270 nM)"
  Observed Result: -0.106
- Sequence Code: "AGACTGAGGTTAAGATCAGGGAAACAGAATACAT"
  Assayed System: "PPARg DBDmut IVT, anti-PPARg (DBD mutation: PPARg1 K132A/R137A, NR concentration 270 nM)"
  Observed Result: -0.0692
- Sequence Code: "CCGACTGGGGCATAAGGTTCCCATAAGCCAGCCC"
  Assayed System: "PPARg DBDmut IVT, anti-PPARg (DBD mutation: PPARg1 K132A/R137A, NR concentration 270 nM)"
  Observed Result: -1.53
- Sequence Code: "AGAACGAGGGCACGCTGAGCTGATAGCAGAGTAG"
  Assayed System: "PPARg DBDmut IVT, anti-PPARg (DBD mutation: PPARg1 K132A/R137A, NR concentration 270 nM)"
  Observed Result: -0.228
- Sequence Code: "CCTACTGAGCCAAAAAGGTCATTGATGCCGATAA"
  Assayed System: "PPARg DBDmut IVT, anti-PPARg (DBD mutation: PPARg1 K132A/R137A, NR concentration 270 nM)"
  Observed Result: 0.266
- Sequence Code: "TAGCCTAGGTCATGCAGGCCAGTATAGTGTCGGC"
  Assayed System: "PPARg DBDmut IVT, anti-PPARg (DBD mutation: PPARg1 K132A/R137A, NR concentration 270 nM)"
  Observed Result: 0.0782
- Sequence Code: "GCGACAGGGGCATCAGCAGGTTACCATAACTTAA"
  Assayed System: "PPARg DBDmut IVT, anti-PPARg (DBD mutation: PPARg1 K132A/R137A, NR concentration 270 nM)"
  Observed Result: -1.18
- Sequence Code: "GCTGATAGGTCAGGTTGGTCAGCTAACGGGTACG"
  Assayed System: "PPARg DBDmut IVT, anti-PPARg (DBD mutation: PPARg1 K132A/R137A, NR concentration 270 nM)"
  Observed Result: -0.567
